Test system: PD-L1
Test method notes: PD-L1 induction in macrophages or RAW264.7 cells with cancer cell conditioned media (flow cytometry)
Assay type: cell-based, mouse
Condition parameters: 100 nM; Table 2; Control 39.8; higher numbers indicate better upregulation
Measurement label: PD-L1

>>> df
                                   molecule  number
0  CCN(c1cc(C(C)(C)C)cc(C(C)(C)C)c1)c1ccc(C(=O)O)cn1 [Compound 9]    39.7
1  CCN(c1cc(C(F)(F)F)cc(C(F)(F)F)c1)c1ccc(C(=O)O)cn1 [Compound 15]    34.8
2  CC(C)(C)c1cc(N(CC2CC2)c2ccc(C(=O)O)cn2)cc(C(C)(C)C)c1 [Compound 14]    46.2
3  CCN(c1cc(C(C)(C)C)cc(C(C)(C)C)c1)c1ncc(C(=O)O)cn1 [Compound 10]      32
4  CCCCN(c1cc(C(C)(C)C)cc(C(C)(C)C)c1)c1ccc(C(=O)O)cn1 [Compound 19]    50.2
5  CCN(c1ccc(C(=O)O)cc1)c1cc(C(C)(C)C)cc(C(C)(C)C)c1 [Compound 8]    31.2
6  CCN(c1ccc(C(=O)O)cn1)c1cc(C(C)(C)C)ccc1C [Compound 12]    45.8
7  C/C(=C/C=C/C(C)=C/C(=O)O)c1cc(C(C)(C)C)cc(C(C)(C)C)c1OCC(F)F [LG101506, reference compound]    67.2
8  C=C(c1ccc(C(=O)O)cc1)c1cc(C(C)(C)C)cc(C(C)(C)C)c1 [Compound 3]    26.5

* * *

Below is a list of entries, each paired with its recorded logD value.
Test method notes: LogD at pH 7.4
Assay type: physicochemical
Condition parameters: pH 7.4 buffer
Measurement label: logD

>>> df
                                   compound  result
0  CCN(c1ccc(C(=O)O)cc1)c1cc(C(C)(C)C)c(OC)c(C(C)(C)C)c1 [drawing 121]     3.8
1  C=C(c1ccc(C(=O)O)cc1)c1cc(C(C)C)c(OC(C)C)cc1C [drawing 114]     3.1
2  C=C(c1ccc(C(=O)O)cc1)c1cc(C(C)(C)C)cc(C(C)(C)C)c1 [drawing 116]     3.8
3  C=C(c1ccc(C(=O)O)cc1)c1ccc(OCC(C)C)c(C(C)C)c1 [drawing 110]       3
4  CCCN(c1cc(C(C)(C)C)cc(C(C)(C)C)c1)c1ccc(C(=O)O)cn1 [drawing 117]     3.4
5  C=C(c1ccc(C(=O)O)cc1)c1cc(C(C)C)c(OCC)cc1C [drawing 115]     2.6
6  CCN(c1ccc(C(=O)O)cc1)c1cc(C(C)(C)C)cc(C(C)(C)C)c1 [drawing 104]       4
7  CC(C)(C)c1cc(C(C)(C)C)cc(C2(c3ccc(C(=O)O)cn3)CC2)c1     2.8
